- TEST SYSTEM: HIV-1 PR (Human immunodeficiency virus type 1 group M subtype B)
- EXPERIMENT: HIV-protease inhibitory activity assay (FRET peptide substrate)
- CONDITION DETAILS: Test Example 1
TEST READOUT: IC50 (nM)

1) COc1ccc(S(=O)(=O)N(CC(C)C)CC(O)C(Cc2ccc(NCC3CCCC3c3sc4c(c3C(=O)O)CC(C)(C)CC4)cc2)NC(=O)OC2COC3(C)OCCC23)cc1 (centres unmarked) [Compound I-410] | 1.99
2) COc1ccc(S(=O)(=O)N(CC(C)C)CC(O)C(Cc2ccc(NCc3ccccc3-c3c(C(=O)O)cnc4ccsc34)cc2)NC(=O)OC2COC3(C)OCCC23)cc1 (centres unmarked) | 1.82
3) COc1ccc(S(=O)(=O)N(CC(C)C)CC(O)C(Cc2ccc(NCc3ccc(Cl)cc3C(=O)Nc3sc4c(c3C(=O)O)CC(C)(C)CC4)cc2)NC(=O)OC2COC3(C)OCCC23)cc1 (centres unmarked) | 8.14
4) COc1ccc(S(=O)(=O)N(CC(C)C)CC(O)C(Cc2ccc(N(C)Cc3cc4c(cc3-c3sc5c(c3C(=O)O)CC(C)(C)CC5)OCCO4)cc2)NC(=O)OC2COC3(C)OCCC23)cc1 (centres unmarked) | 2.39
5) COc1ccc(S(=O)(=O)N(CC2CCCC2)CC(O)C(Cc2ccc(OCc3ccccc3-n3nc4c(c3C(=O)O)CC(C)(C)CC4)cc2)NC(=O)OC2COC3(C)OCCC23)cc1 (centres unmarked) | 0.78
